tested on: HT-29; experiment: Cytotoxicity against human HT-29 cells after 3 days by sulforhodamine B assay; format: functional; details: read-out: ED50 (the source's name)
pEC50: −log10 of the molar value.
Experimental Endpoint: pEC50

Problem: Would you please give the reported pEC50 of O=C1C[C@@H](c2ccccc2)Oc2c(Cc3ccccc3O)c(O)c(Cc3ccccc3O)c(O)c21 with HT-29?
Solution: < 4.70

Numbers sourced from ChEMBL document CHEMBL1833967.
